system.under.test: Neu5Ac(a2-6)Gal(b1-4)GlcNAc(b1-3)Gal(b1-4)[Fuc(a1-3)]GlcNAc(b1-3)Gal(b1-4)[Fuc(a1-3)]GlcNAc
assay.summary: glycan array binding signal (z-score within array); higher = stronger binding
assay.setup: glycan notation: IUPAC condensed, linker removed
This is one part of a sample in which the strongest signals are shown more often than they occur.
Would you mind telling me the reported glycan array binding signal (z-score) of each entry?
Give only the figure.

Short answer for CALR truncated at D342 (Homo sapiens) (protein) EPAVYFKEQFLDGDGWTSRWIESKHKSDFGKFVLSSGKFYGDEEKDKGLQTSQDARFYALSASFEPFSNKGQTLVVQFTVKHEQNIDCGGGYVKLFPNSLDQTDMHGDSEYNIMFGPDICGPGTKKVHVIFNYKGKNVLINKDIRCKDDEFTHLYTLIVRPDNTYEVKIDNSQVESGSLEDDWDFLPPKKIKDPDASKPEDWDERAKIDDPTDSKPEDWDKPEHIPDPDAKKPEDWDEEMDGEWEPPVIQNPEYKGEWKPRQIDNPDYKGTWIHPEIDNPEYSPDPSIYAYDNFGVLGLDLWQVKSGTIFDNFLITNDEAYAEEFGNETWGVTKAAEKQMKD : glycan array binding signal (z-score) was 0.139

Short answer for Gal 3 (Homo sapiens), P17931 (protein) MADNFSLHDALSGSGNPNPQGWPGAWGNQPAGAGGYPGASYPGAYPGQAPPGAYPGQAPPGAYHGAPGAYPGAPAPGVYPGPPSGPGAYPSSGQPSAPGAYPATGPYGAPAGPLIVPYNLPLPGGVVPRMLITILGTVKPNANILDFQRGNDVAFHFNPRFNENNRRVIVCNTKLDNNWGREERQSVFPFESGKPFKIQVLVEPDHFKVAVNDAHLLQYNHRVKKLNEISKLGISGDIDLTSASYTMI : glycan array binding signal (z-score) was -0.386
